# Test system: SK-MEL-28 melanoma
# protocol.details: NCI tumour cell line growth inhibition, 48 h
attribute.measured: TGI

Consider the following illustrative entries.
Prompt line: Please list TGI recorded for the molecule COC(=O)C1=C(O)C(C(=O)OC)[C@]2(O)[C@H](C(=O)OC)[C@H]1C[C@@H](c1ccccc1OC)[C@H]2C(=O)OC (stereo partly specified)
Response line: 27.1 µM

Prompt line: Tell us which TGI value is on record for "CSc1c(C#N)c(O)n(-c2ccc(Cl)cc2)c(=O)c1C#N"
Response line: > 100 µM

Prompt line: Look up and state reported TGI for "Cn1c(=O)c2c(ncn2CCCCn2ccnc2[N+](=O)[O-])n(C)c1=O"
Response line: > 100 µM

Quick request: TGI for each listed item, please.
1. COc1ccc(NC(=O)CSc2nnc(Cc3ccccc3)o2)cc1
2. CCCCN(CCCC)c1cc(C(=O)CCCCCN)c2ccccc2n1
3. C[C@@]12C[C@@H](c3ccccc3O1)N1CCSC1=N2

Response line:
["> 100 µM", "3.37 µM", "> 100 µM"]

Go through the items and report each one's TGI.
1. COc1ccc(-c2cn3c(nc4ccccc43)c(C)n2)cc1
2. O=C(c1ccsc1)c1cc2c(s1)C(=O)c1ccsc1C2=O

Response line:
1. > 100 µM
2. 0.305 µM
